Values from ChEMBL document CHEMBL4765359

experimental.target: Epithelial discoidin domain-containing receptor 1 (Homo sapiens)
Sequence (Q08345 whole entry, the tested form may be a part): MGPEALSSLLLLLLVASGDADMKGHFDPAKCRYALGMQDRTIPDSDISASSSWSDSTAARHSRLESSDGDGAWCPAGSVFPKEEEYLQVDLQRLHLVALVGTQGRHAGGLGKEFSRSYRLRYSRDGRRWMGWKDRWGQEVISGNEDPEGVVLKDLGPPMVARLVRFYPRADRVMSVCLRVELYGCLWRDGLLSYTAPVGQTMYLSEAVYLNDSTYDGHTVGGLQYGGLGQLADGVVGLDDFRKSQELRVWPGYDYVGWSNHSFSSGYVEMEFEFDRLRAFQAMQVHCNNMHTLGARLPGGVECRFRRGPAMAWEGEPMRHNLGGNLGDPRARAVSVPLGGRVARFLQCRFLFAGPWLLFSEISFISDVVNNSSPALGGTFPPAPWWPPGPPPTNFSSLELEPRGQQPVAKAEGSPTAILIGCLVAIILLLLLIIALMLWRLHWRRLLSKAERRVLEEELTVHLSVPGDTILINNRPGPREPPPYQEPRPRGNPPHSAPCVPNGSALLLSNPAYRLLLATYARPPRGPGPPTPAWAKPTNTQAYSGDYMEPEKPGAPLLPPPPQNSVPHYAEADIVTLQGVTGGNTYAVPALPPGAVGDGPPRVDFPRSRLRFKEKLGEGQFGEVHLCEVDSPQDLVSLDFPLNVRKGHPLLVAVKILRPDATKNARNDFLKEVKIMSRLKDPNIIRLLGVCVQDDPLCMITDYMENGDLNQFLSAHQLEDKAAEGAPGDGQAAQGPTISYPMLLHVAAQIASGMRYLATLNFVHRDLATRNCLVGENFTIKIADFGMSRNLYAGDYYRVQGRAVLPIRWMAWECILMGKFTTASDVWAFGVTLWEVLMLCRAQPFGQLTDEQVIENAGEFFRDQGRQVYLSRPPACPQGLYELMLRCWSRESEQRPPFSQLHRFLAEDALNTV
measurement.description: Inhibition of DDR1 (unknown origin) expressed in HEK293T cells assessed as reduction in collagen-induced DDR1 autophosphorylation
Format: cell-based
measured.endpoint: pIC50
Remember the convention: pIC50 equals -log10 of concentration in molar.

# input compound: "O=C(Nc1ccc2c(c1)Oc1ncccc1C(=O)N2c1ccncc1)Nc1ccc(Cl)c(C(F)(F)F)c1" ; wanted: its pIC50
6.77

###

Listed compounds paired with reported log10 of IC50
experimental.target: Cyclin-dependent kinase 8 (Homo sapiens, UniProt P49336)
Sequence (P49336 whole entry): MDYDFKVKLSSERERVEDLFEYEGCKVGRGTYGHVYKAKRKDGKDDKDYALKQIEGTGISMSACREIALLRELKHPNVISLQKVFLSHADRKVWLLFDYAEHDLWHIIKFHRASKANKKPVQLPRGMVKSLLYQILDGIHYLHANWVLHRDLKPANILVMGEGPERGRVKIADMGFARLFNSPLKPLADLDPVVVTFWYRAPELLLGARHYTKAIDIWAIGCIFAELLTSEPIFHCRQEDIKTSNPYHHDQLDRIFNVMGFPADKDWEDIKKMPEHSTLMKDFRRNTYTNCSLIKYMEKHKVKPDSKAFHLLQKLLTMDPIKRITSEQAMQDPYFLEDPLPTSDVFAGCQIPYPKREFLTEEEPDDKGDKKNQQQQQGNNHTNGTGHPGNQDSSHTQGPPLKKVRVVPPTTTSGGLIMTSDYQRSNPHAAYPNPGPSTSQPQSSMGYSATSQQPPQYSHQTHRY
measurement.description: Inhibition of CDK8 (unknown origin)
# log10 transformed; quantity=IC50; unit=nM

smiles.record	observed.result
Nc1cc(N2C(=O)c3cccnc3Oc3cc(NC(=O)Nc4ccc(Cl)c(C(F)(F)F)c4)ccc32)ccn1	1.76
O=C(Nc1ccccc1)Nc1ccc2c(c1)Oc1ncccc1C(=O)N2c1ccncc1	1.00
O=C(NCc1ccccc1F)Nc1ccc2c(c1)Oc1ncccc1C(=O)N2c1ccncc1	2.51

# input compound: "CNC(=O)c1cc(N2C(=O)c3cccnc3Oc3cc(NC(=O)Nc4ccc(Cl)c(C(F)(F)F)c4)ccc32)ccn1" ; wanted: its log10 of IC50
2.56

Could you do the same for "O=C(Nc1ccc2c(c1)Oc1ncccc1C(=O)N2c1ccncc1)c1ccccc1" , please?
3.38

Could you do the same for "O=C(Nc1ccccc1)Nc1ccc2c(c1)Oc1ncccc1C(=O)N2c1cccnc1" , please?
3.61

Could you do the same for "CC(C)(O)C(=O)Nc1ccc2c(c1)Oc1ncccc1C(=O)N2c1ccncc1" , please?
3.71

Could you do the same for "CCCNC(=O)Nc1ccc2c(c1)Oc1ncccc1C(=O)N2c1ccncc1" , please?
3.70
